Source: a melting point compilation (Tetko et al.; mined from patent text by program, amines drawn as free bases though some values may be those of a salt)

Recorded melting point values for a group of molecules are listed next.

Below: 5 molecules and their reported melting point.
In [3]: df
Out[3]:
                                   molecule         result
0          Cc1cc(NC(=O)c2ccccc2C)ccc1C(=O)O  231 to 233 °C
1       CCOC(=O)CNc1ncccc1NC(=O)c1cccc(F)c1  134 to 135 °C
2         O=c1c2c(c3cccnc3n1-c1ccccc1)CCCC2  160 to 162 °C
3  CC(=O)N1[C@@H](C)[C@@H]2C(=O)N(Cc3ccccc3)C(=O)[C@@H]2[C@@H]1c1ccc(C#N)cc1 (racemic)  107 to 109 °C
4  O=C(NO)c1ccc(CNC(=O)c2[nH]c(-c3ccc(O)cc3)cc2-c2ccsc2)cc1  121 to 122 °C

Name the reported melting point value associated with the molecule CC(C)OC1(C(=O)O)C=C(Cl)C=C(Cl)C1 (stereo unspecified)
140 to 141 °C
